Target: UniProtKB Q72547
Experiment: Compound ability to inhibit the production of HIV reverse transcriptase (RT) in preinfected PBL (peripheral blood lymphocytes) at 21 days at a concentration 5 uM
Format: functional
Assign class by Activity (c.p.m. 50ul-1): not lower than 20000 means fulfilled; lower than 20000 means not fulfilled.

[
  {
    "MOLECULE": "Cc1cn([C@H]2C[C@H](N=[N+]=[N-])[C@@H](COP(=O)(O)OC[C@H]3OC(O)[C@H](O)[C@@H](O)[C@@H]3O)O2)c(=O)[nH]c1=O (stereo partly specified)",
    "TESTED_SYSTEM": "UniProtKB Q72547",
    "CATEGORY_LABEL": "not fulfilled"
  },
  {
    "MOLECULE": "Cc1cn([C@H]2C[C@H](N=[N+]=[N-])[C@@H](COP(=O)(O)OCCO[C@H]3O[C@H](CO)[C@@H](O)[C@H](O)[C@@H]3O)O2)c(=O)[nH]c1=O",
    "TESTED_SYSTEM": "UniProtKB Q72547",
    "CATEGORY_LABEL": "not fulfilled"
  },
  {
    "MOLECULE": "CCCCCCCCCCCCCCCCOP(=O)(OC[C@H]1OC(O)[C@H](O)[C@@H](O)[C@@H]1O)OC[C@H]1OC(n2cc(C)c(=O)[nH]c2=O)C[C@@H]1N=[N+]=[N-] (stereo partly specified)",
    "TESTED_SYSTEM": "UniProtKB Q72547",
    "CATEGORY_LABEL": "fulfilled"
  },
  {
    "MOLECULE": "CCCCCCCCCCCCCCCCOP(=O)(OC[C@H]1OC(O)[C@@H](O)[C@@H](O)[C@@H]1O)OC[C@H]1OC(n2cc(C)c(=O)[nH]c2=O)C[C@@H]1N=[N+]=[N-] (stereo partly specified)",
    "TESTED_SYSTEM": "UniProtKB Q72547",
    "CATEGORY_LABEL": "fulfilled"
  },
  {
    "MOLECULE": "Cc1cn([C@H]2C[C@H](N=[N+]=[N-])[C@@H](CO)O2)c(=O)[nH]c1=O [ZIDOVUDINE]",
    "TESTED_SYSTEM": "UniProtKB Q72547",
    "CATEGORY_LABEL": "not fulfilled"
  }
]

---

Molecular target: Human immunodeficiency virus type 1 reverse transcriptase (Human immunodeficiency virus 1)
Test: Compound ability to inhibit the production of HIV reverse transcriptase (RT) in culture supernatant of monocytic U937 on at 7 days at a concentration 1 uM
Type: functional
Below, each entry is listed alongside its reported Activity (c.p.m. 50ul-1).
QUANTITY: Activity (c.p.m. 50ul-1)

[
  {
    "MOLECULE": "CCCCCCCCCCCCCCCCOP(=O)(OC[C@H]1OC(O)[C@H](O)[C@@H](O)[C@@H]1O)OC[C@H]1OC(n2cc(C)c(=O)[nH]c2=O)C[C@@H]1N=[N+]=[N-] (some centres undefined)",
    "QUANTITY": "Activity (c.p.m. 50ul-1)",
    "MEASURED": 66000
  },
  {
    "MOLECULE": "CCCCCCCCCCCCCCCCOP(=O)(OCCO[C@H]1O[C@H](CO)[C@@H](O)[C@H](O)[C@@H]1O)OCC1OC(n2cc(C)c(=O)[nH]c2=O)CC1N=[N+]=[N-] (some centres undefined)",
    "QUANTITY": "Activity (c.p.m. 50ul-1)",
    "MEASURED": 401000
  },
  {
    "MOLECULE": "Cc1cn([C@H]2C[C@H](N=[N+]=[N-])[C@@H](COP(=O)(O)OC[C@H]3OC(O)[C@H](O)[C@@H](O)[C@@H]3O)O2)c(=O)[nH]c1=O (some centres undefined)",
    "QUANTITY": "Activity (c.p.m. 50ul-1)",
    "MEASURED": 158000
  },
  {
    "MOLECULE": "CCCCCCCCCCCCCCCCOP(=O)(OC[C@H]1OC(O)[C@@H](O)[C@@H](O)[C@@H]1O)OC[C@H]1OC(n2cc(C)c(=O)[nH]c2=O)C[C@@H]1N=[N+]=[N-] (some centres undefined)",
    "QUANTITY": "Activity (c.p.m. 50ul-1)",
    "MEASURED": 122000
  }
]

Values were extracted from ChEMBL document CHEMBL1125259.
